The measured values listed here are drawn from ChEMBL document CHEMBL4765452.

Target: High affinity nerve growth factor receptor (Homo sapiens, UniProt P04629, G667C)
Sequence (P04629 33-796 G667C limits assumed): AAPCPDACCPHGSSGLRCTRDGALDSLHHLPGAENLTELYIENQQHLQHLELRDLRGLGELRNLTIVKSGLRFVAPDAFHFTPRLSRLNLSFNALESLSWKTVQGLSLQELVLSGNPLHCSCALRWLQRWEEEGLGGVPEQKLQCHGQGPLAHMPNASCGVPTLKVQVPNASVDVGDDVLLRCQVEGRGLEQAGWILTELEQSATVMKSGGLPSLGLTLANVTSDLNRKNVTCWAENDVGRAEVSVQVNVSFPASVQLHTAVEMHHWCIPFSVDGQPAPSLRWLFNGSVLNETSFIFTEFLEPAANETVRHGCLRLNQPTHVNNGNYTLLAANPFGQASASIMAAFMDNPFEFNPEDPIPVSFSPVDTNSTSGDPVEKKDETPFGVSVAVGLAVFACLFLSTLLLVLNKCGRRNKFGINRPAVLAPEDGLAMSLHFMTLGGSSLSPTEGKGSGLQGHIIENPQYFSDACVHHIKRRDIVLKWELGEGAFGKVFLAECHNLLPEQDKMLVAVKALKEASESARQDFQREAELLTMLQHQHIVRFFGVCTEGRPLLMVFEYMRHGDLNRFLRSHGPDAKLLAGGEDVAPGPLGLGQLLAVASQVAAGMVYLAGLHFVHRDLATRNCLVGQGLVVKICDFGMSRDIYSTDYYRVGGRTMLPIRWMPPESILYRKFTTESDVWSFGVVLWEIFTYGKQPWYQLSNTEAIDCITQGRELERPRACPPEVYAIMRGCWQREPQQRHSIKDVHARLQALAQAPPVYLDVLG
Assay: Inhibition of LMNA fused TRKA G667C mutant (unknown origin) transfected in mouse BaF3 cells assessed as reduction in phosphorylation at Y490 residue after 2 hrs by Western blot analysis
reported_endpoint: EC50 (nM)
Could you give me the number in nM? Just the number is fine.

Entry Cc1nc(NC(=O)CN2CCN(C)CC2)sc1-c1ccc2c(/C=C/c3ccccn3)n[nH]c2c1 ; EC50 = 67

###

Test: Cmax in Sprague-Dawley rat at 10 mg/kg, po
Type: ADME, organism-based
Set-up: route oral, dose 10 mg/kg
Details: in vivo
reported_endpoint: Cmax
In your response, the unit should come after the numeric value.

Entry under test: Cc1nc(NC(=O)CN2CCN(C)CC2)sc1-c1ccc2c(/C=C/c3ccccn3)n[nH]c2c1 . Its Cmax was 139 ng/mL

###

Recorded measurements of GI50 at 72 h, one per entry
Molecular target: VEGFR2 (vascular endothelial growth factor receptor 2), wild type, TEL fusion (Homo sapiens, UniProt P35968)
Sequence (P35968 whole entry, the tested form may be a part): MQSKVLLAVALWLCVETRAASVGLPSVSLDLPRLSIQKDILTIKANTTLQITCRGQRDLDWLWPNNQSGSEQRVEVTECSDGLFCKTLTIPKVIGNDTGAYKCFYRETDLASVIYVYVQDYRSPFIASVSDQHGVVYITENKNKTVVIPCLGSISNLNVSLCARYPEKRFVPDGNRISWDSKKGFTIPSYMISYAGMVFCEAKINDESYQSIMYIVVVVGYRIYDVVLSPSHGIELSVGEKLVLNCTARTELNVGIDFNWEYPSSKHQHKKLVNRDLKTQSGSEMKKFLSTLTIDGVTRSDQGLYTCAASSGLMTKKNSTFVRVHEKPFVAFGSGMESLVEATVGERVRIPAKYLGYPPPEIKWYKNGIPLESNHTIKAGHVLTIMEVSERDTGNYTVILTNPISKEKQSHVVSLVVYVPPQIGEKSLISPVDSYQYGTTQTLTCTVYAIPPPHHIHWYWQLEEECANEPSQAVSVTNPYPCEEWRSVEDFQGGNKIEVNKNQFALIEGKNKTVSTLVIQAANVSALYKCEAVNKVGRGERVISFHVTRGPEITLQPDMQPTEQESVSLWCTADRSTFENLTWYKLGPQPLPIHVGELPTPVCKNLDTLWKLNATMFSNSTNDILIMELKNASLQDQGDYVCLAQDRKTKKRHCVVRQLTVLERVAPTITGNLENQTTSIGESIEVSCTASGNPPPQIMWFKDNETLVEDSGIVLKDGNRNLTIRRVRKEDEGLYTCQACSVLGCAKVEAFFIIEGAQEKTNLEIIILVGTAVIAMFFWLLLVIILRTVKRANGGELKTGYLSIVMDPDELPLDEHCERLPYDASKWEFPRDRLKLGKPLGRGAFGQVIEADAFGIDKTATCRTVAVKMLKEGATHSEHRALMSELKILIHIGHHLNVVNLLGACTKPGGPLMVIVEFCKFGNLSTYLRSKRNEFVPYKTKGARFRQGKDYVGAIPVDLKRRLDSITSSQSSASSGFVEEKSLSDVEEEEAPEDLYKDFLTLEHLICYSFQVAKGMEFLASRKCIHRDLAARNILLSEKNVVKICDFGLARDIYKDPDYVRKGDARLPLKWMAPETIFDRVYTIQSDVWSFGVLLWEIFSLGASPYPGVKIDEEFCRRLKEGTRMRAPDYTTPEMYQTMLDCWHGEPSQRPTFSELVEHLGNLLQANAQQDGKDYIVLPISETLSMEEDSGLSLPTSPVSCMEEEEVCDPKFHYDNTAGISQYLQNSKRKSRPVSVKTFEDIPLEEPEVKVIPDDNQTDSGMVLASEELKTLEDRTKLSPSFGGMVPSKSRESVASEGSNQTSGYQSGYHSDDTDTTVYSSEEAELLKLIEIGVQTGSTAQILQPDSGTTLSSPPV
Assay: Inhibition of wild type TEL fused VEGFR2 (unknown origin) transfected in mouse BAF3 cells assessed as growth inhibition after 72 hrs by CCK8 assay
Type: cell-based
Details: mouse BaF3 cells transfected with wild type TEL-fused VEGFR2
The reply should contain only the number, in µM.

GET /value?item= CSCCC(N)C(=O)Nc1nc(C)c(-c2ccc3c(/C=C/c4ccccn4)n[nH]c3c2)s1 (centres undefined) &field=GI50 at 72 h returns 0.101

GET /value?item= Cc1nc(NC(=O)C(C)C)sc1-c1ccc2c(/C=C/c3ccccn3)n[nH]c2c1 &field=GI50 at 72 h returns 0.181

For record CN1CCN(Cc2ccc(NC(=O)CCSc3ccc4c(/C=C/c5cnccn5)n[nH]c4c3)cc2C(F)(F)F)CC1 the listed GI50 at 72 h is 0.002

In the following, a different compound is considered.
Cc1nc(NC(=O)Cc2cccc3ccccc23)sc1-c1ccc2c(/C=C/c3ccccn3)n[nH]c2c1 has a reported GI50 at 72 h of 0.015

###

Target: BDNF/NT-3 growth factors receptor (Homo sapiens)
Sequence (Q16620 whole entry): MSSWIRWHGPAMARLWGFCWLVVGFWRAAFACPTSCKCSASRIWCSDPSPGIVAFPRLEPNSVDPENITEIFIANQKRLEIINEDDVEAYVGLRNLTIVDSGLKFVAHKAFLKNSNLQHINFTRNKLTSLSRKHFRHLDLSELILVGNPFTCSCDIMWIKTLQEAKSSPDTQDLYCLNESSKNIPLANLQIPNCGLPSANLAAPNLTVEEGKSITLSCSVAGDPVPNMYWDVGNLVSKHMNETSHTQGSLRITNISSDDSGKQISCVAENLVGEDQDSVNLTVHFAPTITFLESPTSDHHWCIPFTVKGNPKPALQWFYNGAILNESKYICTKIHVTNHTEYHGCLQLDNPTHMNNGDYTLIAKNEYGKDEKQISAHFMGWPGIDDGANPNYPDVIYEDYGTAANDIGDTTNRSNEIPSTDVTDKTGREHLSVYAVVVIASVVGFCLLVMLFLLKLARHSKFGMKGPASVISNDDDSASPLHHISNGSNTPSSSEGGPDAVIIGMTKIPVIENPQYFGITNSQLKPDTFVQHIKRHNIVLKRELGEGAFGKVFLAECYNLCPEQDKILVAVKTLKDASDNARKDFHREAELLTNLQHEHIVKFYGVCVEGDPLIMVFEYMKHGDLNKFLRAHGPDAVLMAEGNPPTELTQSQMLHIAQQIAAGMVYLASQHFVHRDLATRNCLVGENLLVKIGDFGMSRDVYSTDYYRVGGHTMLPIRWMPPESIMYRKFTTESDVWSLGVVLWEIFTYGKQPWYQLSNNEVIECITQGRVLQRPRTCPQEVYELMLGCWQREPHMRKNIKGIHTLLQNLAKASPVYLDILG
reported_endpoint: IC50 (nM)
Supply the numeric figure in nM, leaving out any unit text.

Item Cc1nc(NC(=O)CN2CCN(C)CC2)sc1-c1ccc2c(/C=C/c3ccccn3)n[nH]c2c1 was tested on BDNF/NT-3 growth factors receptor (Homo sapiens); the reported IC50 is 0.71

###

Assay: Cmax in Sprague-Dawley rat at 1 mg/kg, iv
Type: ADME, organism-based
Design: route intravenous, dose 1 mg/kg
Details: in vivo
reported_endpoint: Cmax (ng/mL)
Quick note: give the figure in ng/mL, leave out the unit.

The recorded Cmax for Cc1nc(NC(=O)CN2CCN(C)CC2)sc1-c1ccc2c(/C=C/c3ccccn3)n[nH]c2c1 is 363

###

Molecular target: VEGFR2 (vascular endothelial growth factor receptor 2), wild type, TEL fusion (Homo sapiens, UniProt P35968)
Assay: Inhibition of wild type TEL fused VEGFR2 (unknown origin) transfected in mouse BAF3 cells assessed as growth inhibition after 72 hrs by CCK8 assay
Assay type: cell-based
Settings: mouse BaF3 cells transfected with wild type TEL-fused VEGFR2
log10 of GI50 at 72 h reference
The figures below represent log10 of GI50 at 72 h, where GI50 at 72 h is stated in nM.

Please fill in: log10 of GI50 at 72 h reported for Cc1nc(NC(=O)CN2CCN(C)CC2)sc1-c1ccc2c(-c3cnc(N)nc3)n[nH]c2c1 = 3.75

New cases:
Cc1n[nH]c2cc(SCCC(=O)Nc3ccc(CN4CCN(C)CC4)c(C(F)(F)F)c3)ccc12 has a reported log10 of GI50 at 72 h of 0.95

log10 of GI50 at 72 h in this record for COc1ccc(CC(=O)Nc2nc(C)c(-c3ccc4c(/C=C/c5ccccn5)n[nH]c4c3)s2)cc1OC : 1.28
